# study_target: Protein S100-A4 (Homo sapiens) (UniProt P26447)
# Sequence (P26447 whole entry, looked up): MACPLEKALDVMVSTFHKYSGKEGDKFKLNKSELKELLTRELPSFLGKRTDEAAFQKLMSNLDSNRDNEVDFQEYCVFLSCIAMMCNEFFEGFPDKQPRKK
# assay_protocol: human S100A4 peptide interaction inhibition curves – biochemical, fluorescence polarization, cherry-picked hits, dose response (AID 687001)
# condition_set: FP, S100A4/TAMRA-myosin IIA peptide binding; series mostly up to 11 µM
Measured potencies and affinities stand elsewhere. The source made the active and inactive calls.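 How the source made its calls: active means signal-lowering compounds whose fitted half-maximal concentration is at or below twice the top tested dose in every run; inconclusive means runs disagree, flat 30 to 70% inhibition, or poor curve fit; inactive means the rest.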
metric: activity change, negative = inhibition

Field: example entries. Status: answers known.
INSERT INTO results (compound, study_target, measured) VALUES
  ('CCOC(=O)[C@]12CCC=C1N(Cc1cccc3ccccc13)C(=O)[C@H](CC(=O)N1CCOCC1)C2', 'Protein S100-A4 (Homo sapiens) (UniProt P26447)', 'inactive'),
  ('CN1c2ccc(-c3cccc(C#N)c3)cc2[C@H]2[C@H](CCN2S(=O)(=O)c2ccccc2F)[C@H]1CO', 'Protein S100-A4 (Homo sapiens) (UniProt P26447)', 'inactive'),
  ('O=C1C2C3C=CC(C2C(=O)N1CCO)C1C(=O)N(CCO)C(=O)C31 (stereo not drawn)', 'Protein S100-A4 (Homo sapiens) (UniProt P26447)', 'inactive'),
  ('CO[C@H]1CC[C@H]2CCOc3c(C#N)cccc3C(=O)N(C)C[C@H](c3ccccc3)CC(=O)N(C)C[C@H]1O2', 'Protein S100-A4 (Homo sapiens) (UniProt P26447)', 'inactive'),
  ('C[C@@H]1CN([C@@H](C)CO)S(=O)(=O)c2ccc(-c3cccc(C#N)c3)cc2O[C@@H]1CN(C)C(=O)c1ccc(F)cc1', 'Protein S100-A4 (Homo sapiens) (UniProt P26447)', 'inactive');

Given the entry CCOc1ccc(C2C(C(=O)c3ccco3)=C(O)C(=O)N2CCN2CCOCC2)cc1OCC (stereo not drawn) , report its measured activity change, negative = inhibition. inactive

Given the entry CCOC(=O)C1(C)CCCN1C(=O)c1ccc(C(F)(F)F)nc1C (stereo not drawn) , report its measured activity change, negative = inhibition. inactive

Given the entry CCCN1[C@H](C(=O)N2CCCCC2)[C@@H](CO)[C@@H]2Cn3c(ccc(-c4ccccc4F)c3=O)[C@@H]21 , report its measured activity change, negative = inhibition. inactive
